Tested on: HOP-92
Assay: NCI tumour cell line growth inhibition, 48 h
The source made the active and inactive calls. Cut-off read from the data, not from the text of the source: active = GI50 up to about 1.1 µM and inactive = higher.
GI50 by entry:

molecule	GI50
COC(=O)[C@H](CNC(=O)/C=C/c1ccc(OC(C)=O)c(OC(C)=O)c1)NC(=O)/C=C/c1ccc(OC(C)=O)c(OC(C)=O)c1	> 100 µM (inactive)
O=C1C(c2ccc([N+](=O)[O-])cc2)=[N+]([O-])c2ccccc21	31 µM (inactive)
COc1ccc2nc3cc([N+](=O)[O-])ccc3c(NNc3ccc(Cl)cc3)c2c1	20.9 µM (inactive)
COc1ccc2oc3c(C)cc4c(OC)nnc(OC)c4c3c2c1	10.9 µM (inactive)
CC(C(=O)NCNC(=O)c1ccccc1)C(=O)Nc1ccccc1 (stereo not given)	> 100 µM (inactive)
CCCN1C(=O)C/C(=C\C(C)=O)Nc2ccccc21	> 100 µM (inactive)
CC(CNC(=O)c1ccccc1)(CNC(=O)c1ccccc1)[N+](=O)[O-]	> 100 µM (inactive)
C1CSCCSCSCCS1	> 100 µM (inactive)
O=c1c(Br)cc2c(-c3ccccc3)c3cc(Br)c(O)c(Br)c3oc-2c1Br	> 100 µM (inactive)
C=C(C)[C@@]1(O[Si](C)(C)C)CCCC[C@@H]1CC(Sc1ccccc1)Sc1ccccc1	12.7 µM (inactive)

Return GI50 for the following molecule: C=CC1ON(Cc2ccccc2)CCc2cc(OC)c(OC)cc21 (stereo not given)
46.5 µM (inactive)

Return GI50 for the following molecule: CC1=Nc2c(O)nc(S)nc2NC(c2c(Cl)cccc2Cl)C1 (stereo not given)
9.31 µM (inactive)

Return GI50 for the following molecule: CCN1CCC(O)(/C=C/c2ccc(OC)cc2)C(C(=O)/C=C/c2ccc(OC)cc2)C1 (stereo not given)
9.48 µM (inactive)

Return GI50 for the following molecule: COc1cc2c(cc1O)CN1CCC23C=C[C@@H](O)CC13 (stereo not given in full)
> 100 µM (inactive)

Return GI50 for the following molecule: COc1cccc(N(CN2C(=O)CCC2OC)C(C)=O)c1 (stereo not given)
> 100 µM (inactive)

====

Test system: UACC-62
Assay: NCI tumour cell line growth inhibition, 48 h
Activity calls are given as the source filed them. Cut-off read from the data, not from the text of the source: active = GI50 up to about 1.1 µM and inactive = higher.
I would appreciate it if you answered using one of these outcomes: yes (1) (active), no (0) (inactive)

compound	target-under-test	class-name
O=C1C2Cc3ccccc3CN2C(=O)N1CCN1CCOCC1 (stereo not drawn)	UACC-62	no (0)
OC(CC(O)(C(F)(F)Cl)C(F)(F)Cl)c1ccccc1 (stereo not drawn)	UACC-62	no (0)
COc1ccccc1-n1c(N)c2c(C)c(-c3ccccc3)[nH]c2nc1=S	UACC-62	no (0)
C=C1C(C)C2C(Cc3ccccc3)NC(=O)C23C(OC(C)=O)/C=C/C(C)(O)CC(C)C/C=C/C3C1O (stereo not drawn)	UACC-62	no (0)
COc1cc2c(c3c1c(=O)c1ccccc1n3C)C=CC(C)(C)O2	UACC-62	no (0)
O=C(CN(c1ccc(S(=O)(=O)O)cc1)c1ccc(S(=O)(=O)O)cc1)Nn1cnc2ccc(S(=O)(=O)N(c3ccc(S(=O)(=O)O)cc3)c3ccc(S(=O)(=O)O)cc3)cc2c1=O	UACC-62	no (0)
COc1cc(/C=C2\C[C@H]3[C@@H]4CC=C5C[C@@H](N6CCCC6)CC[C@]5(C)[C@H]4CC[C@]3(C)[C@H]2O)cc(OC)c1OC	UACC-62	no (0)

Turning to the following compound.
Can you look up the reported call for CCCCCCCCCCCCCC(=O)OC(/C=C/C(C)C)C(O)C(O)C(OC)C(=O)NC1CCCCNC1=O (stereo not drawn) for me?
yes (1)
